src = patent US20050221381A1

- assaySystem: soluble DRB1*0401 molecules (DR4) (Homo sapiens, UniProt P01903+P01911, A100K/A169T/F76Y/I96L/K127E/L162R/M171V/N62H/P40V/Q125Y/R42H/S133A/S149N/S66Y/V115G/V209L/W38E)
- Construct: Soluble HLA class I A*0201 and HLA class II DRA1*0101/DRB1*0101/Ii, DRA1*0101/DRB1*0401/Ii and DRA1*0101/DRB1*0404/Ii molecules were expressed in SC-2 cells; made in house; host or cells: SC-2 cells
- Assay type: binding
- Set-up: key: −: no binding/T cell response; +/−: weak binding/T cell response; +: intermediate binding/T cell response; ++: strong binding/T cell response
- conditionParameters: soluble DRB1*0401 molecules
measurementType: Binding to DRB1 *0401

Sample answers from the record:
• VSQYTPDSTPCHRGD [Peptide 58] = ++
• ILVSQYTPDSTPCHR [Peptide 56] = ++
• DVYYTSAFVFPTKDV [Peptide 179] = +
• EYRHTWDRHDEGAAQ [Peptide 380] = −
• YQEFFWDANDIYRIF [Peptide 510] = −

Task: Can you share its Binding to DRB1 *0401? I mean this sequence: RGRLKAESTVAPEED [Peptide 453]
Output: +

Task: What Binding to DRB1 *0401 value was documented for this sequence, DSTPCHRGDNQLQVQ [Peptide 64] ?
Output: +

Task: Which Binding to DRB1 *0401 reading was recorded for the sequence TSGVMTRGRLKAESTVAPEEDTDE [Peptide 1504] ?
Output: +

Task: Record request: Binding to DRB1 *0401 value, item WDRHDEGAAQGDDDV [Peptide 385]
Output: −

Task: Fill in: Binding to DRB1 *0401 of VMTRGRLKAESTVAP [Peptide 450] is ___
Output: +

---

- assaySystem: soluble DRB1*0401 molecules (DR4) (Homo sapiens, UniProt P01903+P01911, A100K/A169T/F76Y/I96L/K127E/L162R/M171V/N62H/P40V/Q125Y/R42H/S133A/S149N/S66Y/V115G/V209L/W38E)
- Construct: Soluble HLA class I A*0201 and HLA class II DRA1*0101/DRB1*0101/Ii, DRA1*0101/DRB1*0401/Ii and DRA1*0101/DRB1*0404/Ii molecules were expressed in SC-2 cells; made in house; host or cells: SC-2 cells
- Format: binding
- Parameters: key: +++: high binding affinity; ++: moderate binding affinity; +: low binding affinity; −: no binding
- conditionParameters: direct binding of individual peptides, SDS-stability assay, compared with YAR and HA306-318
measurementType: DR4 binding

Consider the following illustrative entries.
* NFLLPDAQSIQAAAAG [Peptide 1241] | ++
* YNINISLPSYYPDQKSL [Peptide 1242] | +++
* NFAGIEAAASAIQGNV [Peptide 1238] | −
* GVSTANATVYMIDSVL [Peptide 1237] | ++
* TGSGAGIAQAAAGTV [Peptide 1236] | +

Task: Can you share its DR4 binding? I mean this sequence: VSDLKSSTAVIPGYPV [Peptide 1240]
Output: +

Task: Looking for the measured DR4 binding of AETPGCVAYIGISFLDQ [Peptide 1239] , can you help?
Output: −

Task: Given the entry IDELKTNSSLLTSILTYHVV [Peptide 1235] , report its measured DR4 binding.
Output: −
